Recorded measurements of pIC50, one per entry
biological target: AAK1 (Homo sapiens); construct: NP_055726.2; experiment: P81 filter plate assay; format: biochemical; settings: full-length human AAK1, Mu2 substrate, 33P-ATP
Sequence (Q2M2I8 1-863 isoform Q2M2I8-2): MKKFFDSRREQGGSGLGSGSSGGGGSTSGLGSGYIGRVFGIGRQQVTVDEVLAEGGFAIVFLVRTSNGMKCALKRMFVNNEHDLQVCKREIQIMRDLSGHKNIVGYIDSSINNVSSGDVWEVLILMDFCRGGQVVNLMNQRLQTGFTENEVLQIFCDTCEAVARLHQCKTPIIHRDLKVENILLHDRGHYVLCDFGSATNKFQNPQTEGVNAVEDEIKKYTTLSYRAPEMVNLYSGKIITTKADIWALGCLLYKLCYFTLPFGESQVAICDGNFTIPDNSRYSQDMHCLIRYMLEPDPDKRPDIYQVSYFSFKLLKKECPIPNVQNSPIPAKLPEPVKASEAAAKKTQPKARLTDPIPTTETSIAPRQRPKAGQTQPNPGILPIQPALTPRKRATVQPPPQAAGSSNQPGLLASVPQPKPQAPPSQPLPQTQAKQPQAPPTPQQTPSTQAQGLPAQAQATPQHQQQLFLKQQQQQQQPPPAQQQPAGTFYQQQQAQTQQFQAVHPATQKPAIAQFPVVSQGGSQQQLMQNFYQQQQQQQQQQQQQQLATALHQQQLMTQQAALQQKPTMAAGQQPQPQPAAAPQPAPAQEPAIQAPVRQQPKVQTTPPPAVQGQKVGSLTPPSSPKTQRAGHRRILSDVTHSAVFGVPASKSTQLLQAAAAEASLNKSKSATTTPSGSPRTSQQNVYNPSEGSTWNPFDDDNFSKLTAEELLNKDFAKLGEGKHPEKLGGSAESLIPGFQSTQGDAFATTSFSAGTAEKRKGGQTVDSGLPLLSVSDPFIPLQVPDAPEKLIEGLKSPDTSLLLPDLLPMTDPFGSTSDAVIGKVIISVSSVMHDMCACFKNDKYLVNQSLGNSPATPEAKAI
pIC50: −log10 of the molar value.

- Structure: "COc1ncccc1-c1cnn2ccc(NCCCOC(C)(C)C)nc12"
  pIC50: "≥ 8.00"
- Structure: "CCOC(=O)N1CCC[C@H]1CNc1ccn2ncc(-c3ccccc3OC)c2n1"
  pIC50: "≥ 8.00"
- Structure: "CC(C)C[C@H](N)C(=O)N1CCN(c2ccn3ncc(Cl)c3n2)CC1"
  pIC50: "≥ 7.00"
- Structure: "COc1nc(C)ccc1-c1cnn2ccc(NCCOC(C)(C)C)nc12"
  pIC50: "≥ 7.00"
